Listing of entries alongside the reported growth inhibition.
Assay: NCI Yeast Anticancer Drug Screen. Data for the rad50 strain (AID 155);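 also: 0% = growth of vehicle-only cultures of the same strain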
Conditions: S. cerevisiae rad50 strain growth inhibition; at 50.0 µM; hits give high values
This is part of a sample that, as a whole, favours compounds with a hit. Of some 79,000 tested, about 15% had one in any assay.
Write it as a number; the unit % goes unstated.

[[record]]
compound = "COCCCNC(=O)C1C(=O)C(=O)N(CCCOC)C1=O (stereo not drawn)"
property_label = "growth inhibition"
unit_abbrev = "%"
value = -2.35

[[record]]
compound = "CC(C)(C)N(Cc1ccccc1)C(=O)Nc1ccccc1"
property_label = "growth inhibition"
unit_abbrev = "%"
value = 6.45

[[record]]
compound = "O=c1cc[nH]c(=S)[nH]1.[Pt]"
property_label = "growth inhibition"
unit_abbrev = "%"
value = 12.1

[[record]]
compound = "COc1ccc(-c2cc(=O)c3cccnc3[nH]2)cc1"
property_label = "growth inhibition"
unit_abbrev = "%"
value = 30.1

[[record]]
compound = "N#CC(c1cnc2ccccc2n1)c1cccc2ccccc12 (stereo not drawn)"
property_label = "growth inhibition"
unit_abbrev = "%"
value = -0.3

[[record]]
compound = "Cc1cc(C)c(NC(=O)NC2CCCCC2)c(C)c1"
property_label = "growth inhibition"
unit_abbrev = "%"
value = 4.7

[[record]]
compound = "O=c1c2cccnc2ncn1CCN1CCCC1"
property_label = "growth inhibition"
unit_abbrev = "%"
value = 5.25

[[record]]
compound = "CC(C)n1cnc2c(=O)[nH]c(=O)[nH]c21"
property_label = "growth inhibition"
unit_abbrev = "%"
value = -9.55

[[record]]
compound = "COc1cc2cc3c4cc(OC)c(OC)cc4cc[n+]3c(CCC(=O)O)c2cc1OC (tested in a mixture with another compound)"
property_label = "growth inhibition"
unit_abbrev = "%"
value = 10.4

[[record]]
compound = "CCc1c(CNc2ccc(C(=O)NC(CC(=O)O)C(=O)O)cc2)ccc2nc(N)nc(N)c12 (stereo not drawn)"
property_label = "growth inhibition"
unit_abbrev = "%"
value = 5.5


Task: Any idea what growth inhibition was measured for CCc1nc2ccccc2cc1C ?
Output: 5.5

Task: Which growth inhibition is reported for this compound? O=C(CN1CCCCC1)NC(=O)c1ccccc1
Output: -8.8

Task: Requested read-out: growth inhibition. Entry: CC1(c2ccc(Cl)s2)NC(=O)NC1=O (stereo not drawn)
Output: -1

Task: Quick one: growth inhibition of CC(=O)OCCn1cnc2c(NCC=C(C)C)ncnc21 ?
Output: -28.4
